- test_summary: growth suppression of yeast trafficking mutant, preliminary HTS, modulators of trafficking downstream of Golgi apparatus project, 1536-format plate, OD 615 nm (AID 637)
- condition_context: yeast transport mutant growth, absorbance 615 nm, 18 h; stronger effect = higher value
Active and inactive are the calls of the source. Rule as the data show it: active = inhibition above about 30%; inactive = the rest.
observation_type: inhibition

Problem: Value lookup for inhibition; key = COc1ccc(CCNC(=O)C2CC(=O)N(c3ccccc3)C2)cc1OC (stereo not drawn)
Solution: -1.8% (inactive)

Problem: Value lookup for inhibition; key = Oc1ccccc1C1=Nc2nc3ccccc3n2C(c2ccccc2)C1 (stereo not drawn)
Solution: -1.15% (inactive)

Problem: Value lookup for inhibition; key = "O=C(Cn1ccc2ccccc2c1=O)NCCC(=O)N1CCN(C(=O)c2ccco2)CC1"
Solution: -2.3% (inactive)

Problem: Value lookup for inhibition; key = CCN(CC)CCN1C(=O)C(O)=C(C(=O)c2cccs2)C1c1ccccn1 (stereo not drawn)
Solution: -1.59% (inactive)

Problem: Value lookup for inhibition; key = "O=C(Nc1ccc2nc(-c3cccs3)[nH]c2c1)c1ccco1"
Solution: 2.95% (inactive)

Problem: Value lookup for inhibition; key = "c1ccc(CNc2ncnc3ccccc23)cc1"
Solution: 3.93% (inactive)

Problem: Value lookup for inhibition; key = CCC(C)(C(=O)NC1CCCC1)N(C(=O)c1cnccn1)c1c(C)n(C)n(-c2ccccc2)c1=O (stereo not drawn)
Solution: -7.38% (inactive)

Problem: Value lookup for inhibition; key = "O=C(OCc1ccc2c(c1)OCO2)c1ccc(S(=O)(=O)N2CCCCC2)cc1"
Solution: -2.5% (inactive)

Problem: Value lookup for inhibition; key = "COc1cc(OC)cc(-c2nnc(SCC(=O)Nc3cc(C)on3)o2)c1"
Solution: -4.33% (inactive)

Problem: Value lookup for inhibition; key = "Cc1ccc(-c2noc(CCC(=O)NCCc3ccccc3Cl)n2)cc1"
Solution: -5.17% (inactive)

Problem: Value lookup for inhibition; key = "CC(=O)Nc1ccc(S(=O)(=O)N2CCC(NC(C)=O)(c3cccc(F)c3)CC2)cc1"
Solution: 0.82% (inactive)

Problem: Value lookup for inhibition; key = "CCOC(=O)c1ccccc1NC(=O)COC(=O)C1=COCCO1"
Solution: 3% (inactive)

Problem: Value lookup for inhibition; key = "C/C=C/Cn1c(Br)nc2c1c(=O)[nH]c(=O)n2C"
Solution: 0.16% (inactive)

Problem: Value lookup for inhibition; key = "CCOc1cc(S(=O)(=O)Nc2ccccn2)ccc1F"
Solution: -5.9% (inactive)

Problem: Value lookup for inhibition; key = "CCc1ccc(CN(C)CCc2ccccn2)cc1"
Solution: -3.02% (inactive)

Problem: Value lookup for inhibition; key = "CC(C)N(C(=O)CSc1nnc(-c2cc3ccccc3cc2O)n1Cc1ccco1)C(C)C"
Solution: -0.66% (inactive)

Problem: Value lookup for inhibition; key = Cc1ccc(CS(=O)(=O)CCC(=O)NCC2CCCO2)cc1 (stereo not drawn)
Solution: 7.5% (inactive)

Problem: Value lookup for inhibition; key = "CN(C(=O)COc1cc(=O)n(C)c2ccccc12)c1ccc(Br)cc1"
Solution: -4.1% (inactive)

Problem: Value lookup for inhibition; key = "O=C(O)CCNc1ccc2c(c1)OCCO2"
Solution: -2.67% (inactive)

Problem: Value lookup for inhibition; key = "Cc1cccc(OCCCC(=O)O)c1"
Solution: -6.83% (inactive)

Problem: Value lookup for inhibition; key = CC1NC(=O)NC1CCCCCC(=O)NCCc1ccccc1 (stereo not drawn)
Solution: 0.79% (inactive)

Problem: Value lookup for inhibition; key = CCCCCC1CC(CC(=O)O)C(=O)O1 (stereo not drawn)
Solution: 7.67% (inactive)

Problem: Value lookup for inhibition; key = "O=C(c1ccc2c(c1)[nH]c(=S)n1c3ccccc3nc21)N1CCN(c2ncccn2)CC1"
Solution: 3.67% (inactive)
